# T1/2 values compiled below
Molecular target: T1, human bow-Ang-2 tetrameric construct (hBA2) (human)
T1 construct: also called human BA2; hBA2-hIgG1
T1 sequence (chain, as listed by the source limits assumed): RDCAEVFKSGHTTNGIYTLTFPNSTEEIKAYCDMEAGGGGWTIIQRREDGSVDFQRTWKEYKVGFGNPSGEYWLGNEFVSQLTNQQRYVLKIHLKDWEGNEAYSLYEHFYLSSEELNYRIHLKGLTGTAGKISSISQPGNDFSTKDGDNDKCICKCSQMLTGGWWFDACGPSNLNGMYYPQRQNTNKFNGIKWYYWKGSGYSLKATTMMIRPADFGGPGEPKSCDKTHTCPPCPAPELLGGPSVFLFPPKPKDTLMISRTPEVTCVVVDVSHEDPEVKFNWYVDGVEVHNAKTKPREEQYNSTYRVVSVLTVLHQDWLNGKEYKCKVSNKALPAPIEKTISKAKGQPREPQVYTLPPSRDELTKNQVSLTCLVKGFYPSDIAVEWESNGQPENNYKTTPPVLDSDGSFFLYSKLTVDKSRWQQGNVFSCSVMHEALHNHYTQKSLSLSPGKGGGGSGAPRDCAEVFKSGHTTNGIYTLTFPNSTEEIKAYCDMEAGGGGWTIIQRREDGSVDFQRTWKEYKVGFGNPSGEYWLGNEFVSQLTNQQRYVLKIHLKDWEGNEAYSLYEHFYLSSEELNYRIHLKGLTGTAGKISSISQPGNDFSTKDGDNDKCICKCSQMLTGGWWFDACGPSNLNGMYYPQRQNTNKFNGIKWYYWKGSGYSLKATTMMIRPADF
Test: SPR, captured Ab
// return numeric value only (unit: h, not printed)

# binder, T1/2 / h
records = [
    ("H1H690P (antibody, V domains shown) VH: EVQLVESGGGLVQPGESLRLSCAASGFTFSSYAMSWVRQGPGKGLEWVSSITGSGDTTYYADSVKGRFTISRDNSKNTLYLHMNSLRAEDTAVYYCAKDFLDYSTYLAFDLWGQGTMVTVSS VL: EIVLTQSPATLSLSPGERATLSCRASQSVSSYLTWYQQKPGQAPRLLSYDASNRATGIPARFSGSGSGTDFTLTISSLEPEDFAVYYCQQRSNWPLTFGGGTKVEIK", 4.99),
]

Now for a further binder.
Exercise: Indicate the recorded T1/2 value for this binder: H1H750N (antibody, V domains shown) VH: QVKLVESGGGVVQPGRSLRVSCAASGFTFSSYGMHWVRQAPGKGLEWLAIIWYDGDNKYYSDSVKGRFTISRDNSKNTLYLQMNSLRAEDTAEYYCVRDASIASRFLDYWGQGTLVTVSS VL: DIQMTQSPSSLSASIGDRVTITCRATQDINNYLAWFQQKPGKAPKSLIYATSNLQSGVPSKFSGSGSGTDYTLTISSLQPEDFSTYYCQQYHSYPLTFGGGTKVEIK
Key: 4.73
